assay: Primary qHTS for delayed death inhibitors of the malarial parasite plastid, 96 hour incubation; settings: P. falciparum luciferase reporter growth; series mostly up to 28.7 µM
The whole screen tested about 320,000 compounds, of which about 22,000 (6.9%) were called active. About 27% were inconclusive and are not listed. Calls come from the whole dose curve; as a rule, active = well fitted inhibition curve with a large enough effect; inconclusive = small, poorly fitted or top-dose-only effect, or another doubt; inactive = no such curve, though single readings can be large or run the other way. This is one part of a sample in which actives are shown more often than they occur.
Your response should consist of one outcome taken from active, inactive

Cc1ccc(C(=O)N(CC(=O)NC2CCCC2)c2ccc(F)cc2)s1; inactive
Cc1ccc(O)c(NC(=O)c2cc(-c3ccco3)on2)c1; inactive
CCN(CC(=O)Nc1c(F)cccc1F)C(=O)c1ccc(-c2ccccc2)cc1; inactive
CC(OC(=O)CNC(=O)c1ccc(Cl)c([N+](=O)[O-])c1)C(=O)NCc1ccco1 (stereo unspecified); inactive
CCOc1ccc(C)cc1S(=O)(=O)NC1CCCCCC1; inactive

Entry O=C(CN1CCN(c2ccc(F)cc2)CC1)Nc1ccccc1 : call = ? inactive

Kindly provide the recorded test outcome for the following molecule: O=C(c1ccc2c(c1)OCCO2)C1CCN(S(=O)(=O)c2cccc(F)c2)CC1 inactive

GET /call?item= CCOc1ccc(N2C(=O)CSC2=NC#N)cc1 returns the recorded outcome of this test. inactive

Lab log entry: CN(c1ccccc1)S(=O)(=O)c1ccc2[nH]c(=O)[nH]c2c1 — outcome as called in the assay? inactive

Please let me know the test result on file for O=S(=O)(NC1CCN(S(=O)(=O)c2ccc3c(c2)OCCO3)CC1)c1c(F)cccc1F . active

Dear colleague, could you share the recorded outcome for CC(C)N(C(=O)c1ccc(-c2ccccc2F)cc1)C(C)C when you have a moment? active
